# Study System: 11β-HSD1 (Homo sapiens, UniProt P28845)
# Sequence (P28845 whole entry): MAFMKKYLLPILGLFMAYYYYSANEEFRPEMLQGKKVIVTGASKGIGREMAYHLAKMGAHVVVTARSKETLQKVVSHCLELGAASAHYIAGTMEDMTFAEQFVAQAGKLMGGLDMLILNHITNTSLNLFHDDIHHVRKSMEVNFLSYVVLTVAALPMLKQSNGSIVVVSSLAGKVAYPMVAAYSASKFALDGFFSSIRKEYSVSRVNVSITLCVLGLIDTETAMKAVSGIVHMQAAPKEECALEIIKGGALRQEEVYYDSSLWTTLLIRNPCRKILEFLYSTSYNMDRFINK
# Measurement Parameters: read-out: IC50 Range
substances and their reported IC50

Worked set:
(R)-3-((S)-1-(2′,4′-difluorobiphenyl-4-yl)propyl)-6-(4-fluorophenyl)-6-(2-hydroxyethyl)-1,3-oxazinan-2-one [EXAMPLE 175 Isomer 2] : 100 to 1000 nM
(S)-3-((S)-1-(2′,4′-difluorobiphenyl-4-yl)propyl)-6-(4-fluorophenyl)-6-(2-hydroxyethyl)-1,3-oxazinan-2-one [EXAMPLE 175 Isomer 1] : < 100 nM

For the next question, use this substance.
Fill in: IC50 of (R)-6-(3-hydroxypropyl)-3-((S)-1-(4-methoxyphenyl)ethyl)-6-phenyl-1,3-oxazinan-2-one [EXAMPLE 282 Isomer 1] is ___ < 100 nM

====

# Study System: 11β-HSD1 (Homo sapiens, UniProt P28845)
# Measurement Parameters: Biological Test Example 1; 100 nM; 0.1 µM
Assay Metric: Average % inhibition at 100 nM (%)
Write the number in % without appending the unit.

Worked set:
CC(C)C1(CCC(N)=O)CCN([C@@H](C)c2ccc(Cl)cc2)C(=O)O1 (single isomer, unassigned) [EXAMPLE 334 Isomer 2] : 31.9
COc1ccc([C@H](C)N2CCC(CCC(N)=O)(C(C)C)OC2=O)cc1 (single isomer, unassigned) [EXAMPLE 333 Isomer 1] : 96.2

For the next question, use this compound.
Fill in: Average % inhibition at 100 nM of C[C@@H](c1ccc(Br)cc1)N1CCC(CCO)(c2ccc(F)cc2F)OC1=O (single isomer, unassigned) [EXAMPLE 365 Isomer 2] is ___ 61.1

====

# Study System: 11β-HSD1 (Homo sapiens, UniProt P28845)
# Measurement Parameters: Biological Test Example 1; 100 nM; 0.1 µM
compounds and their reported Average % inhibition at 100 nM
Write the number in % without appending the unit.

CC(C)C1(CCC(N)=O)CCN([C@@H](C)c2ccc(Cl)cc2)C(=O)O1 (single isomer, unassigned) [EXAMPLE 334 Isomer 1] : 96.6
CC(O)CC[C@]1(c2ccc(F)cc2)CCN([C@@H](C)c2ccc(Cl)cc2)C(=O)O1 (single isomer, unassigned) [EXAMPLE 383 Isomer 2] : 95.3

For the next question, use this compound.
Fill in: Average % inhibition at 100 nM of COc1ccc([C@H](C)N2CCC(CCCO)(C(C)C)OC2=O)cc1 (single isomer, unassigned) [EXAMPLE 332 Isomer 1] is ___ 97.8

====

# Study System: 11β-HSD1 (Homo sapiens)
# Assay Notes: biochemical
# Measurement Parameters: IC50 Range, Biological Test Example 1; microsomes from CHO cells overexpressing human 11β-HSD1
Assay Metric: IC50

Worked set:
COc1ccc([C@H](C)N2CC[C@](CC(C)(C)O)(c3ccccc3)OC2=O)cc1 : < 0.1 µM
COc1ccccc1-c1cccc(N2CCC(C)(c3ccccc3)OC2=O)c1 (stereo not shown) : < 0.1 µM
CN(C)S(=O)(=O)c1cccc(-c2cccc(N3CCC(C)(c4ccccc4)OC3=O)c2)c1 (stereo not shown) : 0.1 to 1 µM
C[C@@H](c1ccc(Cl)cc1)N1CC[C@](CCC(N)=O)(c2ccccc2)OC1=O : < 0.1 µM
CC1(c2ccccc2)CCN(c2cccc(-c3cccc(Cl)c3)c2)C(=O)O1 (stereo not shown) : < 0.1 µM

Fill in: IC50 of C[C@@H](c1ccc(-c2ccc(F)cc2F)cc1)N1CC[C@](CC(O)CNC(N)=O)(c2ccc(F)cc2)OC1=O (single isomer, unassigned) [EXAMPLE 276 Isomer 2] is ___ > 0.1 µM

Fill in: IC50 of `C[C@@H](c1ccc(-c2ccc(F)cc2)cc1)N1CC[C@](CCN2CCOCC2)(c2ccccc2)OC1=O` is ___ < 0.1 µM

These data points were gathered from patent US8575156B2.
